Each recorded value in this set is attributed to the supplement of paper PMC10567573.

B1: TNXB (parent)
chain: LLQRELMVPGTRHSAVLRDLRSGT

# Variants of: B1
# protocol.summary: protein stability index of a GFP-peptide fusion (GPS, HEK-293T) (PSI 1-6); higher = more stable;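 also: lentivirally expressed fusions sorted by FACS into six bins by GFP to DsRed ratio, PSI derived from sequencing read proportions per bin multiplied by bin number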
# details: c terminus: a fixed tail appended
recorded.endpoint: protein stability index

# alteration, experimental.value
rows = [
    ("P9V", 2.38),
    ("D19F", 2.18),
    ("R21Q", 2.01),
    ("Q3M", 2.16),
    ("V16C", 2.02),
    ("E5G", 2.03),
    ("E5H", 1.87),
    ("S14C", 2.03),
    ("V16R", 2.52),
    ("S14Y", 2.71),
    ("S22C", 2),
    ("R4L", 2.76),
    ("V16I", 2.11),
    ("E5R", 1.98),
    ("S14K", 2.67),
    ("T24V", 2.29),
    ("T24M", 2.29),
    ("G23K", 2.92),
    ("V16A", 3.05),
    ("R18V", 2.51),
    ("L17N", 2.96),
    ("L2F", 2.15),
    ("R12A", 2.01),
    ("R12Q", 2.42),
    ("R12H", 2.4),
    ("P9H", 2.23),
    ("S22V", 1.82),
    ("L2V", 2.48),
    ("V16W", 2.06),
    ("P9E", 2.54),
    ("S14T", 2.45),
    ("V16H", 2.46),
    ("M7Q", 2.23),
    ("T11M", 2.2),
    ("E5M", 1.64),
    ("R18P", 2.75),
    ("V8P", 2.21),
    ("L6V", 2.89),
    ("H13L", 2.01),
    ("M7P", 3.11),
    ("L2C", 2.13),
    ("T11L", 2.32),
    ("R12V", 2.26),
    ("P9Y", 2.01),
    ("P9S", 2.2),
    ("G23D", 3.38),
]
